The reported measurements were obtained from paper PMC3534310.

- tgt: cathepsin E (Rattus norvegicus, UniProt P16228)
- Construct: Cathepsin E was isolated from rat spleens as previously described; from tissue; host or cells: rat spleen
- Sequence (P16228 59-398): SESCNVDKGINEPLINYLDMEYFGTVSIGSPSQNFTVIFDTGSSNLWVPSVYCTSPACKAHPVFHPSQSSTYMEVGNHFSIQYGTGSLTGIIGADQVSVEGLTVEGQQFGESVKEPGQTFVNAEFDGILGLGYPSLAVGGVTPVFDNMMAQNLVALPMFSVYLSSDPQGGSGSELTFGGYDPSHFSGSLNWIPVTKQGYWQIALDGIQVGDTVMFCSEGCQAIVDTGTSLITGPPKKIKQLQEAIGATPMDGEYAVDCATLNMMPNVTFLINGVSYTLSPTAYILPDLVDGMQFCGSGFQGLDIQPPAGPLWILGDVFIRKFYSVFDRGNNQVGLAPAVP
- protocol: Cathepsin E protease activity assay (fluorogenic substrate, neutral pH)
- Type: biochemical
- applied.conditions: Table 1; cathepsin E activity alone = 100%; 20 nM cathepsin E + 20 nM peptide, pH 7.4, pre-incubation 25°C 10 min, 5 μM substrate, 37°C 1 h; peptide by in vitro translation (italics) or chemical synthesis
quantity: Activity (%)

* SGIKVGCDPPSCG [Peptide S9] | 140%
* GSPCIGII [Peptide S2] | 133%
* PGIKIIIIG [Peptide S4] | 151%
* IGCEERSFPNIIIIIG [Peptide S8] | 168%
* PGIKPPPCIIIIG [Peptide S10] | 145%
* SPIISHIVGCDPPSCG [Peptide S7] | 160%
* IEGRVGCDFMYVG [Peptide S1] | 130%
